assay: Toxicity liver stage against HepG2, at 10uM; assay type: cell-based; design: test concentration 10 uM, cell line HepG2-A16-CD81EGFP; conditions: human, HepG2-A16-CD81EGFP cells; read-out: INHIBITION
QUANTITY KIND: cytotoxicity at 10 µM (%)
Give bare numbers, in %.

Value sought for every listed compound: cytotoxicity at 10 µM.
1. CC(C)c1sc(Cl)nc1C(=O)N1CCN(c2ccccn2)CC1
2. CN(Cc1nc(-c2cccnc2)no1)C(=O)c1c2c(nn1C)CCCC2
3. OC(CN1CC(n2cccn2)C1)c1ccc2c(c1)OCCO2 (configuration not stated)
4. Cc1cc(C(F)(F)F)nc(N2CCN3CCCC3C2)n1 (configuration not stated)
5. COCC(C)(CCO)NC(=O)Nc1cccc(Br)c1C (configuration not stated)
6. CC(NC(=O)N1CCNC(=O)CC1)c1ccc(OC(F)F)cc1 (configuration not stated)
7. COc1ccc(C)cc1CC(=O)Nc1cc(C)n[nH]1
8. Cc1nc2c(c(NCc3cc4ccccc4s3)n1)CCNCC2

1: -43.8; 2: 7.54; 3: -19; 4: 4.78; 5: 10.5; 6: 11.6; 7: 0.503; 8: -48.3

====

assay: Toxicity liver stage against HepG2, at 10uM; format: cell-based; design: test concentration 10 uM, cell line HepG2-A16-CD81EGFP; settings: human, HepG2-A16-CD81EGFP cells; read-out: INHIBITION
Kindly supply the reported cytotoxicity at 10 µM values for the records listed here.
Answers are plain numbers, in %.

A selection of reference data follows.
CC(=O)N1CCCC1C(=O)N1CCC(=Cc2cccc(F)c2)CC1 (configuration not stated)    3.5
Cn1cc(C(=O)N2CCCC(n3cncn3)C2)ccc1=O (configuration not stated)    -5.03
Cn1cc(-c2ccnc(NCC3CCN(Cc4ccccc4)C3)n2)cn1 (configuration not stated)    -130
COC[C@@]12CC[C@@H](N3CCOCC3)C[C@H]1CCN(c1ccc(Cl)cn1)C2    -5.14
C=c1occc1=C1NN=C2SC(C#N)C(N)=NN21 (configuration not stated)    0.331

Value sought for every listed compound: cytotoxicity at 10 µM.
1. O=C(NCCn1nc(-n2cncn2)ccc1=O)c1ccccc1Br
2. CCS(=O)(=O)N1CCCc2ccc(NC(=O)Cc3ccc(F)cc3)cc21
3. CCNC(=O)N1CCC(Nc2nccc(NCC)n2)CC1

-2.02
18.6
-3.6

Value sought for every listed compound: cytotoxicity at 10 µM.
1. O=C(CCNc1ccccc1)NC1CCN(C(=O)C2CCCCC2)CC1
2. Cc1ccccc1C(=O)N1CCOC(c2ncc(CN(C)C)[nH]2)C1 (configuration not stated)

[6.72, 0.53]

Value sought for every listed compound: cytotoxicity at 10 µM.
1. Cc1noc(CN2CC=C(c3c[nH]c4ncccc34)CC2)n1
2. CC(C)C1CN(S(=O)(=O)Cc2cccc(C#N)c2)CCS1 (configuration not stated)
3. Cc1ccoc1C(=O)N1CCC(n2cc(-c3ccsc3)nn2)CC1
4. Cc1ncc(CNC(=O)Cc2ccsc2)c(C2CCCN2C)n1 (configuration not stated)

[44.7, 2.66, 5.02, -1.25]

====

Kindly supply the reported cytotoxicity at 10 µM values for the records listed here.
test: Toxicity liver stage against HepG2, at 10uM; type: cell-based; design: test concentration 10 uM, cell line HepG2-A16-CD81EGFP; details: human, HepG2-A16-CD81EGFP cells; read-out: INHIBITION
Answers are plain numbers, in %.

A selection of reference data follows.
Cc1nc(CN(C)C2CCN(CCc3ccc4c(c3)CCO4)C2)no1 (stereo not drawn)    -12
O=C(NC1CC(=O)N(C2Cc3ccccc3C2)C1)c1csnn1 (stereo not drawn)    2.96
Cc1nnc(CN(C)CCc2nc(-c3cccc(Cl)c3)no2)n1C    2.53

Value sought for every listed compound: cytotoxicity at 10 µM.
1. O=C(c1ccc(=O)[nH]c1)N1CCc2c(nc(-c3cccnc3)[nH]c2=O)C1
2. COC1CN(C(=O)C2CC2)CCC(=O)N(C)c2ccccc21 (stereo not drawn)
3. Cc1c(C)n(-c2ccccn2)c2nc3c(c(N)c12)CCCCC3
4. CC(=O)N1CCCn2nc(CNS(=O)(=O)N3CCC(C)CC3)cc2C1
5. O=C(NCCCN1CCOCC1)c1ccn(-c2ccc3ccccn23)n1

9.84
-8.67
6.1
9.91
5.17
